assay: Pharmacokinetics in patients after multiple administrations; assay type: in vivo, human; conditions: human, serum, oral, 20 mg, mean
measured_quantity: AUC(0-t) (ng·h/mL)
// return numeric value only (unit: ng·h/mL, not printed)

IN: Which AUC(0-t) value is on record for COc1ncc(-c2nc(N3CCOCC3)nc3c(CN4CCC(C(C)(C)O)CC4)cc(F)cc23)cc1NS(C)(=O)=O [YY-20394] ?
OUT: 1220

====

test: Pharmacokinetics in patients after multiple administrations; format: in vivo, human; conditions: human, serum, oral, 20 mg, mean
measured_quantity: Cmax (ng/mL)
// return numeric value only (unit: ng/mL, not printed)

IN: Which Cmax value is on record for COc1ncc(-c2nc(N3CCOCC3)nc3c(CN4CCC(C(C)(C)O)CC4)cc(F)cc23)cc1NS(C)(=O)=O ?
OUT: 94.6

====

Experiment: Pharmacokinetics in patients after a single dose
Format: in vivo, human
Conditions: human, serum, oral; single dose, 200 mg, mean ± SD
Text: Additional File 5: Table S3. Mean pharmacokinetic parameters of patients after a single dose in each dosage group
measured_quantity: AUC(0-t) (µg·h/mL)
// return numeric value only (unit: µg·h/mL, not printed)

IN: Which AUC(0-t) value is on record for COc1ncc(-c2nc(N3CCOCC3)nc3c(CN4CCC(C(C)(C)O)CC4)cc(F)cc23)cc1NS(C)(=O)=O ?
OUT: 13.1

====

experiment: Pharmacokinetics in patients after multiple administrations; format: in vivo, human; conditions: human, serum, oral, 200 mg, mean ± SD
measured_quantity: Tmax (h)
// return numeric value only (unit: h, not printed)

IN: Which Tmax value is on record for COc1ncc(-c2nc(N3CCOCC3)nc3c(CN4CCC(C(C)(C)O)CC4)cc(F)cc23)cc1NS(C)(=O)=O ?
OUT: 2

====

assay: Pharmacokinetics in patients after a single dose; format: in vivo, human; conditions: human, serum, oral; single dose, 20 mg, mean
measured_quantity: AUC(0-inf) (ng·h/mL)
// return numeric value only (unit: ng·h/mL, not printed)

IN: Which AUC(0-inf) value is on record for COc1ncc(-c2nc(N3CCOCC3)nc3c(CN4CCC(C(C)(C)O)CC4)cc(F)cc23)cc1NS(C)(=O)=O [YY-20394] ?
OUT: 1390

====

assay: Pharmacokinetics in patients after multiple administrations; type: in vivo, human; conditions: human, serum, oral, 40 mg, mean ± SD, read-out: MRT0→t
measured_quantity: MRT last (h)
// return numeric value only (unit: h, not printed)

IN: Which MRT last value is on record for COc1ncc(-c2nc(N3CCOCC3)nc3c(CN4CCC(C(C)(C)O)CC4)cc(F)cc23)cc1NS(C)(=O)=O [YY-20394] ?
OUT: 28.1

====

assay: Pharmacokinetics in patients after multiple administrations; assay type: in vivo, human; conditions: human, serum, oral, 80 mg, mean ± SD
measured_quantity: Vd/F

IN: Which Vd/F value is on record for COc1ncc(-c2nc(N3CCOCC3)nc3c(CN4CCC(C(C)(C)O)CC4)cc(F)cc23)cc1NS(C)(=O)=O ?
OUT: 388 L

====

Experiment: Pharmacokinetics in patients after multiple administrations
Type: in vivo, human
Conditions: human, serum, oral, 40 mg, mean ± SD
Description: Additional File 6: Table S4. Mean pharmacokinetic parameters of patients after multiple administrations in each dosage group
measured_quantity: Cmax (ng/mL)
// return numeric value only (unit: ng/mL, not printed)

IN: Which Cmax value is on record for COc1ncc(-c2nc(N3CCOCC3)nc3c(CN4CCC(C(C)(C)O)CC4)cc(F)cc23)cc1NS(C)(=O)=O ?
OUT: 208

====

test: Pharmacokinetics in patients after multiple administrations; type: in vivo, human; conditions: human, serum, oral, 80 mg, mean ± SD
measured_quantity: half-life (h)
// return numeric value only (unit: h, not printed)

IN: Which half-life value is on record for COc1ncc(-c2nc(N3CCOCC3)nc3c(CN4CCC(C(C)(C)O)CC4)cc(F)cc23)cc1NS(C)(=O)=O ?
OUT: 25.3

====

test: Pharmacokinetics in patients after multiple administrations; type: in vivo, human; conditions: human, serum, oral, 20 mg, mean
measured_quantity: half-life
Phrase the answer as number then unit, nothing more needed.

IN: Which half-life value is on record for COc1ncc(-c2nc(N3CCOCC3)nc3c(CN4CCC(C(C)(C)O)CC4)cc(F)cc23)cc1NS(C)(=O)=O ?
OUT: 39.5 h

====

experiment: Pharmacokinetics in patients after a single dose; format: in vivo, human; conditions: human, serum, oral; single dose, 140 mg, mean ± SD
measured_quantity: AUC(0-inf) (ng·h/mL)
// return numeric value only (unit: ng·h/mL, not printed)

IN: Which AUC(0-inf) value is on record for COc1ncc(-c2nc(N3CCOCC3)nc3c(CN4CCC(C(C)(C)O)CC4)cc(F)cc23)cc1NS(C)(=O)=O ?
OUT: 15300

====

Experiment: Pharmacokinetics in patients after a single dose
Assay type: in vivo, human
Conditions: human, serum, oral; single dose, 40 mg, mean ± SD
Text: Additional File 5: Table S3. Mean pharmacokinetic parameters of patients after a single dose in each dosage group
measured_quantity: Tmax (h)
// return numeric value only (unit: h, not printed)

IN: Which Tmax value is on record for COc1ncc(-c2nc(N3CCOCC3)nc3c(CN4CCC(C(C)(C)O)CC4)cc(F)cc23)cc1NS(C)(=O)=O ?
OUT: 1.8

====

assay: Pharmacokinetics in patients after multiple administrations; type: in vivo, human; settings: human, serum, oral, 140 mg, mean ± SD
measured_quantity: Tmax (h)
// return numeric value only (unit: h, not printed)

IN: Which Tmax value is on record for COc1ncc(-c2nc(N3CCOCC3)nc3c(CN4CCC(C(C)(C)O)CC4)cc(F)cc23)cc1NS(C)(=O)=O ?
OUT: 3.7

====

assay: Pharmacokinetics in patients after multiple administrations; format: in vivo, human; conditions: human, serum, oral, 40 mg, mean ± SD
measured_quantity: AUC(0-inf) (ng·h/mL)
// return numeric value only (unit: ng·h/mL, not printed)

IN: Which AUC(0-inf) value is on record for COc1ncc(-c2nc(N3CCOCC3)nc3c(CN4CCC(C(C)(C)O)CC4)cc(F)cc23)cc1NS(C)(=O)=O [YY-20394] ?
OUT: 5500

====

experiment: Pharmacokinetics in patients after multiple administrations; format: in vivo, human; conditions: human, serum, oral, 80 mg, mean ± SD
measured_quantity: Cmax (ng/mL)
// return numeric value only (unit: ng/mL, not printed)

IN: Which Cmax value is on record for COc1ncc(-c2nc(N3CCOCC3)nc3c(CN4CCC(C(C)(C)O)CC4)cc(F)cc23)cc1NS(C)(=O)=O ?
OUT: 529

====

assay: Pharmacokinetics in patients after multiple administrations; format: in vivo, human; settings: human, serum, oral, 200 mg, mean ± SD
measured_quantity: AUC(0-inf) (ng·h/mL)
// return numeric value only (unit: ng·h/mL, not printed)

IN: Which AUC(0-inf) value is on record for COc1ncc(-c2nc(N3CCOCC3)nc3c(CN4CCC(C(C)(C)O)CC4)cc(F)cc23)cc1NS(C)(=O)=O ?
OUT: 36300

====

assay: Pharmacokinetics in patients after a single dose; format: in vivo, human; conditions: human, serum, oral; single dose, 200 mg, mean ± SD; read-out: MRT0→t
measured_quantity: MRT last (h)
// return numeric value only (unit: h, not printed)

IN: Which MRT last value is on record for COc1ncc(-c2nc(N3CCOCC3)nc3c(CN4CCC(C(C)(C)O)CC4)cc(F)cc23)cc1NS(C)(=O)=O [YY-20394] ?
OUT: 21.5

====

assay: Pharmacokinetics in patients after a single dose; assay type: in vivo, human; settings: human, serum, oral; single dose, 80 mg, mean ± SD
measured_quantity: Cmax (ng/mL)
// return numeric value only (unit: ng/mL, not printed)

IN: Which Cmax value is on record for COc1ncc(-c2nc(N3CCOCC3)nc3c(CN4CCC(C(C)(C)O)CC4)cc(F)cc23)cc1NS(C)(=O)=O ?
OUT: 347

====

assay: Pharmacokinetics in patients after a single dose; format: in vivo, human; settings: human, serum, oral; single dose, 200 mg, mean ± SD
measured_quantity: AUC(0-inf)
Phrase the answer as number then unit, nothing more needed.

IN: Which AUC(0-inf) value is on record for COc1ncc(-c2nc(N3CCOCC3)nc3c(CN4CCC(C(C)(C)O)CC4)cc(F)cc23)cc1NS(C)(=O)=O [YY-20394] ?
OUT: 15000 ng·h/mL

====

test: Pharmacokinetics in patients after multiple administrations; format: in vivo, human; settings: human, serum, oral, 140 mg, mean ± SD
measured_quantity: Vd/F (L)
// return numeric value only (unit: L, not printed)

IN: Which Vd/F value is on record for COc1ncc(-c2nc(N3CCOCC3)nc3c(CN4CCC(C(C)(C)O)CC4)cc(F)cc23)cc1NS(C)(=O)=O ?
OUT: 215
